test system: HOP-92 (NSC lung cancer); assay: NCI 60-cell one-dose antiproliferative screen; format: cell-based, human; settings: one dose 10 μM
READOUT NAME: GI% (%)
Give bare numbers, in %.

COMPOUND: Cc1ccc(-c2nnc3ccc(NN=Cc4ccccc4)nn23)cc1 [Compound 4d]
UOM: %
GI%: 29.46

COMPOUND: CN(C)c1ccc(C=NNc2ccc3nnc(-c4ccccc4)n3n2)cc1 [Compound 4c]
UOM: %
GI%: 29.78

COMPOUND: COc1ccc(-c2nnc3ccc(NN=Cc4ccccc4)nn23)cc1 [Compound 4e]
UOM: %
GI%: 29.15

COMPOUND: COc1ccc(-c2nnc3ccc(NN=Cc4ccc(C)cc4)nn23)cc1 [Compound 4f]
UOM: %
GI%: 81.11

Next compound, please.
(Q) Indicate the recorded GI% value for this compound: COc1ccc(-c2nnc3ccc(NN=Cc4ccc(O)cc4)nn23)cc1 [Compound 4g]
(A) 68.67

###

system: MDA-MB-231/ATCC (breast cancer); assay: NCI 60-cell one-dose antiproliferative screen; assay type: cell-based, human; settings: one dose 10 μM
READOUT NAME: GI% (%)
Answers are plain numbers, in %.

MOLECULE: COc1ccc(-c2nnc3ccc(NN=Cc4ccc(O)cc4)nn23)cc1 [Compound 4g]
READOUT NAME: GI%
VALUE REPORTED: 39.44

Next molecule, please.
(Q) Indicate the recorded GI% value for this molecule: COc1ccc(-c2nnc3ccc(NN=Cc4ccccc4)nn23)cc1 [Compound 4e]
(A) 34.41

###

tested on: T-47D (breast cancer); assay: NCI 60-cell one-dose antiproliferative screen; type: cell-based, human; settings: one dose 10 μM
READOUT NAME: GI%

A selection of reference data follows.
COMPOUND: COc1ccc(-c2nnc3ccc(NN=Cc4ccccc4)nn23)cc1 [Compound 4e]
GI%: — (— GI% is below 15%)

COMPOUND: Cc1cc(C)n(-c2ccc3nnc(-c4ccccc4)n3n2)n1 [Compound 5]
GI%: — (— GI% is below 15%)

COMPOUND: CN(C)c1ccc(C=NNc2ccc3nnc(-c4ccccc4)n3n2)cc1 [Compound 4c]
GI%: 22.66%

COMPOUND: COc1ccc(-c2nnc3ccc(NN=Cc4ccc(C)cc4)nn23)cc1 [Compound 4f]
GI%: 24.01%

COMPOUND: COc1ccc(-c2nnc3ccc(NNC(C)=O)nn23)cc1 [Compound 6b]
GI%: — (— GI% is below 15%)

COMPOUND: O=[N+]([O-])c1ccc(C=NNc2ccc3nnc(-c4ccccc4)n3n2)cc1 [Compound 4b]
GI%: — (— GI% is below 15%)

COMPOUND: COc1ccc(-c2nnc3ccc(NN=Cc4ccc(O)cc4)nn23)cc1 [Compound 4g]
GI%: 54.64%

COMPOUND: CC(=O)NNc1ccc2nnc(-c3ccccc3)n2n1 [Compound 6a]
GI%: — (— GI% is below 15%)

Next compound, please.
(Q) Indicate the recorded GI% value for this compound: Cc1ccc(-c2nnc3ccc(NN=Cc4ccccc4)nn23)cc1 [Compound 4d]
(A) — (— GI% is below 15%)

###

test system: HCC-2998 (colon cancer); test: NCI 60-cell one-dose antiproliferative screen; format: cell-based, human; conditions: one dose 10 μM
READOUT NAME: GI%

A selection of reference data follows.
MOLECULE: O=[N+]([O-])c1ccc(C=NNc2ccc3nnc(-c4ccccc4)n3n2)cc1 [Compound 4b]
READOUT NAME: GI%
VALUE REPORTED: — (— GI% is below 15%)
//
MOLECULE: COc1ccc(-c2nnc3ccc(NN=Cc4ccccc4)nn23)cc1 [Compound 4e]
READOUT NAME: GI%
VALUE REPORTED: — (— GI% is below 15%)
//
MOLECULE: COc1ccc(-c2nnc3ccc(NN=Cc4ccc(C)cc4)nn23)cc1 [Compound 4f]
READOUT NAME: GI%
VALUE REPORTED: 20.85%
//
MOLECULE: Cc1ccc(-c2nnc3ccc(NN=Cc4ccccc4)nn23)cc1 [Compound 4d]
READOUT NAME: GI%
VALUE REPORTED: — (— GI% is below 15%)

Next molecule, please.
(Q) Indicate the recorded GI% value for this molecule: Cc1cc(C)n(-c2ccc3nnc(-c4ccccc4)n3n2)n1 [Compound 5]
(A) — (— GI% is below 15%)

Ref: paper PMC11420776
